List of pIC50 values.
Target: AKT3 (Homo sapiens, UniProt Q9Y243)
Sequence (Q9Y243 whole entry): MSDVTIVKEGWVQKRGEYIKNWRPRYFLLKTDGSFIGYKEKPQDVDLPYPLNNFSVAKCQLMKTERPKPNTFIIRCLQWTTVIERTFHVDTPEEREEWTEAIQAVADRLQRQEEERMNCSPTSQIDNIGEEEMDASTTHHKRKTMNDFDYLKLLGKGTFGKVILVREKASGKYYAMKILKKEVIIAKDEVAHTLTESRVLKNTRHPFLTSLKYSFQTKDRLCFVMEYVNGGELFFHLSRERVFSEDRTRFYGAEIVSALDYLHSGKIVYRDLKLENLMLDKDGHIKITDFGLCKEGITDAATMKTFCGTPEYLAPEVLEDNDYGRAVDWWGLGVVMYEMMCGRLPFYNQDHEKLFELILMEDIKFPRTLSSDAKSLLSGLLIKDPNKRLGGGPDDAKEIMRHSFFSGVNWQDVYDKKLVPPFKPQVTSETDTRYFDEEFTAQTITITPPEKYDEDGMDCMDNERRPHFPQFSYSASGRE
Test: AKT Kinase Assay (IMAP fluorescent polarisation) vs AKT3
Settings: activated AKT3, FAM Crosstide substrate
Experimental: Testing of the compounds was performed using an AKT Kinase Assay: Activated AKT isoforms 1, 2 and 3 were assayed utilising a 5′ FAM Crosstide (Seq. GRPRTSSFAEG-OH). The extent of kinase phosphorylation was determined by fluorescent polarisation using IMAP progressive binding reagent, which introduces binding beads which allow the reagent to specifically bind to phosphate residues via covalent co-ordination complex bonds. […]
pIC50: −log10 of the molar value. Counter-ions that a name gives are not always drawn.

Examples from the recorded data:
NC1(c2ccc(-c3c(-c4ccccc4)oc4ccc(-n5ccnc5)cc4c3=O)cc2)CCC1 ... < 5.00
NC1(c2ccc(-c3c(-c4ccccc4)oc4c(ccc5nc[nH]c54)c3=O)cc2)CCC1 ... 5.00 to 6.00
CCn1ncc2ccc3c(=O)c(-c4ccc(C5(N)CCC5)cc4)c(-c4ccccc4)oc3c21 [Example 81, hydrochloride] ... 5.00 to 6.00

Proceeding to the next molecule to report its pIC50.
Kindly state the measured pIC50 obtained for NC1(c2ccc(-c3c(-c4ccccc4)oc4c(ccc5[nH]c(=O)[nH]c54)c3=O)cc2)CCC1 with AKT3 (Homo sapiens, UniProt Q9Y243).
< 5.00
